Source of measurements: PubChem BioAssay AID652154

# experiment.description: PAX8 transcriptional activity inhibition in RMG-I – RMG-I cells, luciferase, single concentration, primary screen (AID 652154);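 further: luciferase light reporting Pax8 driven TPO promoter activity; plate controls were median of neutral control wells for no effect and mitoxantrone controls for full effect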
# condition.label: RMG-I TPO-luciferase reporter, SteadyGlo, 24 h; at 12.6 µM
Hit rate of the full screen: of about 360,000 compounds, about 4,200 (1.2%) were called active.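 How the source made its calls: active means mean replicate inhibition at least 60% with every replicate also reaching 60%; inconclusive means only one of the two criteria is met; inactive means mean below 60% and not all replicates reaching 60%.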 The sample holds actives, similar compounds and a random draw of the others, so the mix is not that of the screen.
Hello, when you answer, please use one of the following outcomes: class 1 = active, class 0 = inactive

Answered cases to consult:
smiles.code | cat
C[C@@H]1CN([C@H](C)CO)S(=O)(=O)c2ccc(C#CC3(O)CCCC3)cc2O[C@@H]1CN(C)C(=O)c1cccnc1 | class 0
COc1ccccc1S(=O)(=O)N(C)C[C@H]1Oc2cc(C#CCC3CCCC3)ccc2S(=O)(=O)N([C@@H](C)CO)C[C@H]1C | class 1
COc1cc(/C=N/NC(=O)c2ccc(N3CCCC3=O)cc2)ccc1O | class 1

[Q] Could you check what this test reported for "CN1CCN(C(=O)C[C@@H]2CC[C@@H]3[C@H](COC[C@@H](O)CN3Cc3cccc(F)c3)O2)CC1" ?
[A] class 0

[Q] Could you check what this test reported for "COc1ccc2[nH]c(C(=O)Nc3ccccc3Cl)cc2c1" ?
[A] class 0

[Q] Could you check what this test reported for "COc1cccc(-c2ccc3n(c2=O)C[C@H]2[C@H](CO)[C@@H](C(=O)N4CCCCC4)N(C)[C@@H]32)c1" ?
[A] class 0

[Q] Could you check what this test reported for "CCC(=O)Nc1ccc2c(c1)C(=O)N(C)[C@@H]1CC[C@@H](CC(=O)Nc3cccc(OC)c3)O[C@@H]1CO2" ?
[A] class 0

[Q] Could you check what this test reported for "CC(C)NC(=O)Nc1ccc2c(c1)C(=O)N([C@@H](C)CO)C[C@@H](C)[C@H](CN(C)Cc1ccc(Cl)c(Cl)c1)OCCCC[C@H](C)O2" ?
[A] class 0
